Attribution: patent US11214803B2

assay: Cynomolgus monkey tolerability, hematology (Example 34); format: in vivo, cynomolgus monkeys; conditions: cynomolgus monkey, in vivo, sc, 35 mg/kg
MEASURE NAME: MCH

1197270 (TTAAAGTGTATGTCAG; cEt gapmer with 2'-OMe nucleoside, phosphorothioate, further chemistry not given here) [compound 1197270]: 22 pg
1198831 (CACTTTTACATTAGGA; chemically modified gapmer, further chemistry not given here) [compound 1198831]: 23 pg
1198439 (AGTGTATGTCAGAAGA; sugar, 5-methylcytosine, phosphorothioate modifications, further chemistry not given here) [compound 1198439]: 22 pg
1198623 (CTAAGTAAGGTTTCCC; modified gapmer, further chemistry not given here) [compound 1198623]: 23 pg
1198605 (GTAATATTGCAATCTG; modified gapmer, further chemistry not given here) [compound 1198605]: 22 pg
1198872 (TGTATGTCAGAAGAGT; chemically modified gapmer, further chemistry not given here) [compound 1198872]: 23 pg
1198728 (TATTAGAGTATGTGGC; modified gapmer, further chemistry not given here) [compound 1198728]: 23 pg
1198440 (AAGTGTATGTCAGAAG; cEt, 2'-MOE, 5-methylcytosine, phosphorothioate modifications, further chemistry not given here) [compound 1198440]: 23 pg
958499 (ATTAGAGTATGTGGCA; 3-10-3 cEt gapmer, further chemistry not given here) [compound 958499]: 22 pg
1076453 (GTAATATTGCAATCTG; 3-10-3 cEt gapmer, further chemistry not given here) [compound 1076453]: 23 pg

* * *

tested on: Yap1 mRNA; assay: Antisense inhibition of human Yap1 in SNU-449 cells by modified oligonucleotides, single dose (Example 5, RTS36584); assay type: cell-based; details: Table 48; Yap1 mRNA level relative to untreated control; modified oligonucleotides targeting SEQ ID NO.: 1 and 2
Strand notation (5' to 3'): a small letter for the sugar, then the base; units joined by * are phosphorothioate-linked, units joined directly phosphodiester-linked; [ ] holds rarer units or linkages, { } end groups; capitals alone tell only the bases. e = 2'-O-(2-methoxyethyl) (MOE); k = constrained ethyl (cEt); [5mC] = 5-methylcytosine; d = 2'-deoxy (DNA)
MEASURE NAME: YAP1 (% UT)

1198311 (k[5mC]*kA*k[5mC]*dT*dT*dT*dT*dA*d[5mC]*dA*dT*dT*kA*eG*kG*eA; antisense) [Compound 1198311]: 39 % UT
1097224 (antisense k[5mC]*kT*k[5mC]*dT*dT*dA*dT*dA*dT*dG*dG*dT*dT*kT*kT*kG) [Compound 1097224]: 22 % UT
1198346 (kT*kA*kA*dT*dA*dT*dT*dG*d[5mC]*dA*dA*dT*k[5mC]*eT*kG*eT; antisense) [Compound 1198346]: 40 % UT
1197213 (antisense kT*kG*kT*dA*dT*dG*dT*d[5mC]*dA*dG*dA*dA*dG*kA*kG*kT) [Compound 1197213]: 5 % UT
1198331 (k[5mC]*kA*kG*dA*dT*dT*dT*dA*dG*dG*dA*dT*kG*e[5mC]*kA*eT; antisense) [Compound 1198331]: 26 % UT
1198323 (kA*kG*kT*dG*d[5mC]*dT*dT*dT*dG*dG*dA*dA*kG*eA*kT*e[5mC]; antisense) [Compound 1198323]: 32 % UT

* * *

experiment: Cynomolgus monkey tolerability, coagulation (Example 34); type: in vivo; conditions: cynomolgus monkeys, 35 mg/kg subcutaneously, day 44
Returns: string. Value is T if measured APTT is below 20 s, and F if it is greater than or equal to it.

1198872 (TGTATGTCAGAAGAGT; chemically modified gapmer, further chemistry not given here) [compound 1198872]: F
1198728 (TATTAGAGTATGTGGC; modified gapmer, further chemistry not given here) [compound 1198728]: T
1198439 (AGTGTATGTCAGAAGA; sugar, 5-methylcytosine, phosphorothioate modifications, further chemistry not given here) [compound 1198439]: T
1198623 (CTAAGTAAGGTTTCCC; modified gapmer, further chemistry not given here) [compound 1198623]: T

* * *

tested on: Yap1 mRNA; test: Dose-dependent inhibition of human Yap1 in SNU-449 cells (Example 9, RTS36584); format: cell-based; details: 31.3 nM, free uptake, approximately 48 hours
Strand notation (5' to 3'): a small letter for the sugar, then the base; units joined by * are phosphorothioate-linked, units joined directly phosphodiester-linked; [ ] holds rarer units or linkages, { } end groups; capitals alone tell only the bases. e = 2'-O-(2-methoxyethyl) (MOE); k = constrained ethyl (cEt); [5mC] = 5-methylcytosine; d = 2'-deoxy (DNA); m = 2'-O-methyl
Each item that follows carries a reported % UTC (Yap1 mRNA).
MEASURE NAME: % UTC (Yap1 mRNA) (% UTC)

1076187 (kG*kA*kT*dT*dT*dA*dG*dG*dA*dT*dG*d[5mC]*dA*kT*kG*kG; antisense) [compound 1076187]: 68
1198958 (kT*kG*dT*dA*dT*dG*dT*d[5mC]*dA*dG*dA*kA*dG*kA*dG*kT; antisense) [compound 1198958]: 68
1198873 (kA*kG*dT*dG*dT*dA*dT*dG*dT*d[5mC]*dA*kG*eA*kA*eG*kA; antisense) [compound 1198873]: 38
1200857 (kA*kG*kT*dG*dT*mA*dT*dG*dT*d[5mC]*dA*dG*dA*kA*kG*kA; antisense) [compound 1200857]: 66
1074798 (kG*k[5mC]*kT*dT*dT*dG*dG*dA*dA*dG*dA*dT*d[5mC]*kT*kG*kA) [compound 1074798]: 62
1197270 (TTAAAGTGTATGTCAG; cEt gapmer with 2'-OMe nucleoside, phosphorothioate, further chemistry not given here) [compound 1197270]: 43

* * *

system: Yap1 mRNA; assay: Antisense inhibition of human Yap1 in A-431 cells by cEt gapmers, single dose (Example 4, RTS4814); assay type: cell-based; settings: table after Table 37, headed TABLE 32 (gapmers targeting SEQ ID NO.: 3); A-431 cells, free uptake, 2,000 nM, approximately 48 hours, RTS4814
Strand notation (5' to 3'): a small letter for the sugar, then the base; units joined by * are phosphorothioate-linked, units joined directly phosphodiester-linked; [ ] holds rarer units or linkages, { } end groups; capitals alone tell only the bases. k = constrained ethyl (cEt); [5mC] = 5-methylcytosine; d = 2'-deoxy (DNA)
MEASURE NAME: YAP1 (% UTC)

1074885 (kA*kG*kG*dG*d[5mC]*dT*dA*dA*d[5mC]*dT*d[5mC]*d[5mC]*dT*kG*k[5mC]*k[5mC]; antisense) [compound 1074885]: 115
1074883 (kG*kG*k[5mC]*dT*dA*dA*d[5mC]*dT*d[5mC]*d[5mC]*dT*dG*d[5mC]*k[5mC]*kG*kA; antisense) [compound 1074883]: 107
1074881 (k[5mC]*kT*kA*dA*d[5mC]*dT*d[5mC]*d[5mC]*dT*dG*d[5mC]*d[5mC]*dG*kA*kA*kG; antisense) [compound 1074881]: 76
1074884 (kG*kG*kG*d[5mC]*dT*dA*dA*d[5mC]*dT*d[5mC]*d[5mC]*dT*dG*k[5mC]*k[5mC]*kG; antisense) [compound 1074884]: 110
1074886 (k[5mC]*kA*kG*dG*dG*d[5mC]*dT*dA*dA*d[5mC]*dT*d[5mC]*d[5mC]*kT*kG*k[5mC]; antisense) [compound 1074886]: 104
1074880 (k[5mC]*kT*k[5mC]*d[5mC]*dT*dG*d[5mC]*d[5mC]*dG*dA*dA*dG*d[5mC]*kA*kG*kT; antisense) [compound 1074880]: 101
1074882 (kG*k[5mC]*kT*dA*dA*d[5mC]*dT*d[5mC]*d[5mC]*dT*dG*d[5mC]*d[5mC]*kG*kA*kA; antisense) [compound 1074882]: 73

* * *

Tested on: Yap1 mRNA
Test: Antisense inhibition of human Yap1 in A-431 cells by cEt gapmers, single dose (Example 2, RTS4814)
Type: cell-based
Conditions: Table 18; A-431 cells, 5,000 cells per well, free uptake, 2,000 nM modified oligonucleotide, approx. 48 hours; RTS4814; normalized to RIBOGREEN; Yap1 mRNA as percent of untreated control
Procedure: Modified oligonucleotides were designed to target a Yap1 nucleic acid and were tested for their effect on Yap1 mRNA level in vitro. The modified oligonucleotides were tested in a series of experiments that had similar culture conditions. […] After a treatment period of approximately 48 hours, RNA was isolated from the cells and Yap1 mRNA levels were measured by quantitative real-time RTPCR. […] Yap1 mRNA levels were normalized to total RNA content, as measured by RIBOGREEN®. […]
Strand notation (5' to 3'): a small letter for the sugar, then the base; units joined by * are phosphorothioate-linked, units joined directly phosphodiester-linked; [ ] holds rarer units or linkages, { } end groups; capitals alone tell only the bases. k = constrained ethyl (cEt); [5mC] = 5-methylcytosine; d = 2'-deoxy (DNA)
# YAP1 (% UTC) per entry
MEASURE NAME: YAP1 (% UTC)

1074500 (k[5mC]*kT*kA*d[5mC]*dA*dA*dT*dA*dA*d[5mC]*d[5mC]*dA*dT*k[5mC]*k[5mC]*k[5mC]; antisense) [Compound 1074500]: 10
1075012 (antisense k[5mC]*kT*kA*dT*dT*dG*dG*dA*dA*dT*dG*dT*dT*kA*kA*k[5mC]) [Compound 1075012]: 119
1076356 (k[5mC]*kA*kT*dA*dA*dT*dT*dG*dG*dA*d[5mC]*dT*dG*kT*k[5mC]*kT; antisense) [Compound 1076356]: 99
1075268 (antisense kT*kA*kT*dT*dA*dA*d[5mC]*d[5mC]*dT*dG*dG*dA*dG*kA*kG*kT) [Compound 1075268]: 47
1076132 (k[5mC]*kA*kT*d[5mC]*dA*dA*dT*dA*d[5mC]*dT*dG*dA*d[5mC]*kA*kT*k[5mC]; antisense) [Compound 1076132]: 28
1076100 (kA*kA*kT*dA*dA*dG*dG*dG*dA*d[5mC]*dT*dA*d[5mC]*kT*kT*kT; antisense) [Compound 1076100]: 65
1074980 (antisense kT*kA*kT*dT*dG*d[5mC]*d[5mC]*dA*dG*dT*dT*d[5mC]*dT*kT*kG*kT) [Compound 1074980]: 26
1076388 (kG*kA*kA*dA*dT*dA*dT*dT*d[5mC]*dG*dA*dG*dA*kA*kG*kA; antisense) [Compound 1076388]: 6
1076516 (antisense k[5mC]*kA*kT*dA*dA*dA*d[5mC]*dA*dT*dG*dA*dG*dT*kG*kG*kT) [Compound 1076516]: 8
1074852 (antisense kA*kA*kT*dT*dG*dT*dT*dA*dT*dG*dA*dT*dA*kG*kG*k[5mC]) [Compound 1074852]: 4
1075748 (kG*kT*kA*dA*dA*dT*d[5mC]*dA*dA*dG*dT*dT*dG*k[5mC]*kA*kT; antisense) [Compound 1075748]: 7
1075076 (antisense k[5mC]*kA*kT*dA*dA*d[5mC]*dA*dT*d[5mC]*dA*dT*dG*dG*kA*kA*kG) [Compound 1075076]: 25
1074596 (antisense kT*kT*k[5mC]*dT*dA*dT*d[5mC]*d[5mC]*dA*dG*dG*dG*dT*k[5mC]*kA*kA) [Compound 1074596]: 12
